Some sequences, each annotated with its measured protease stability score.
# assay: protease stability score; higher = more stable; yeast display proteolysis, trypsin and chymotrypsin;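 note: relative to predicted unfolded state with 0 unfolded-like and 1 meaning tenfold more protease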
// return a plain number; no unit text

Record excerpt, results attached:
residue sequence	protease stability score
SEEEELAMRIAREVLELWYTGDEDRLTELADPNTRVIFQYGDKEISFHGREWYSKIMLEWRIERVDLRSERAIGDKYELDVHFVGHINGKRHNYRFHIHMLVVNGKLKNIEVRVK	2.2
SEDDELIKKYIKRWLHDLVTGDEDSLEELIDPNARLDINGKELIGREWVERVTKELRIEHINPRSVRSINGKVEIETEVHVNVNGVKIILDRHLDIHKVNGKWIVKEVRVK	1.14
DLEHEITRRVLWELTESSKTGDFDRRLELLDPHARVNIDGKDFHGREEVEYLLREMEKFWGHDRVYLDVKEIEIQGDKIDVDSELTINGKKRKARLIVVKVNGRWVIHSIEVE	1.04
DEEHEDAVRIWEEFLEAVITGDWDRLKTLLDPNVRLHQGDFEIHGREKIVKTIHEMRIHIHDHRFRDSHFINGRVKLHVESDKEIIYGNKKTRLTVHVTVIIHKVNGVWLVHSVHVE	0.986
SEYEEESRIAYELFLETVRTGDEDTSREQADPNVRVDVNGVHLHGRELWAEFVSKYKGMQLDLHHVEIQGNKVTNDGTLTVNGVRRKVHLRINKVNGKWILESVHIH	1.32

Below: the item to evaluate.
Q. Request the reported protease stability score associated with DEEKEEFKIASKLFIDSLRTGNEELLSFLFDPHAKSDVNGKNIHGMEILAETMSRLFERYKGMQIRVDEIRFFDGQIHLHGRVNFNGREHTVIVIINKVNGQWRIQDLQID
A. 1.11

----------
# assay: protease stability score; higher = more stable; yeast display proteolysis, trypsin and chymotrypsin;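 note: relative to predicted unfolded state with 0 unfolded-like and 1 meaning tenfold more protease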
Record Fulfilled whenever protease stability score is at 0.6 or higher; record Not fulfilled when lower.

See these solved cases before continuing.
residue sequence	class name
SDDHEEAKEALRLWVEDLLTGDEDRLRELVDPNARIEIIVNGRTIEYHGRDRVNKWTSFVLLRLGVKHSHVHEIRLIDGRVHNDLRIHQGDKDQILHLSFEKINGKWTLREVKISVV	Fulfilled
TEEDEMWHKFMEHYVHNFLTGDPNKAKKLADPDTRFEIDGKDVVGMERIIDEFLKVPGLRSEIKRVTFIGDKIHIDGRMIINGVETKVDIDIHVVNGVIKSIHIRVR	Fulfilled
DEEEEEVRKLAHIHLHWLKTGDEEFEKKYADPHTKFRFNGRSSHGMEDFAEWVREIRIHDVIIRRVRVVNGVNEIDMEVDFEFDGKRIRSQTQILLFIYDGRIKSTEFTIR	Fulfilled
HEWERLHHEAMEHFLRLQETGNEKTLQELADPDARLHYNGKDYHGRESMLKFWIELGVDHIHLHDFRIQGDKMEIHMDDHQGDKRLHTIIIHRKVNGQWHLQSEKIH	Not fulfilled
DDIEETFRHYLDQWIRDLRTGDEEALYRLADPNARHKINGQHLHGRELHDHEFNRIKNLKVDFVTRDIRIIGDKLIIHGEMIIRINGRQISIDTEIYLRKIDGRWFVEQVNVG	Not fulfilled
EEDHSEVERRLEIILHKWETGDERILHHYLDPHAKFIINGREYHGRENALEHWVKSEEDLGVKHERLREYDFRYQGDKVELHTEIELHVGNKVFDIHIIIIARKVNGRWVIEEVRLEFR	Fulfilled

Q. Could you tell me if the measured protease stability score of SEDDEKIERWLHIILRAFETGDERILQELMDPNTRMDINGVEIHGRERVTKELHRIRKELGADHIEVRLTDEKRVNGRLRLHTQLHFHQGNKLIIIESRILFEKYDGKWMIESMSEK reaches 0.6 or more?
A. Fulfilled

Q. Could you tell me if the measured protease stability score of SEEDEIVRKLSEIMIHSLETGDFDSFRELADPDYRIETEDHEIVGMEEFERWLKEHLDRFDYDKWEYHSLHIYGDKVKMDIELHLDIDGVKRTHDVYIIIRKYNGQWIVESFMFK reaches 0.6 or more?
A. Not fulfilled

Q. Could you tell me if the measured protease stability score of SDEHDVVRELLEIMEIVWRTGDWREMTKMFDPNTRISYGDKYIVGWEALEVLLKRIDHHTMHEIHFRDVHVQGDKIRLDGEVRFERHVGDYREHVTVDVHIHARKIDGRWINTNIRTH reaches 0.6 or more?
A. Fulfilled

Q. Could you tell me if the measured protease stability score of DEEEKHHHELFKEWSRSLITGDFTTMERMIDPNARFEINGVEFHGMDTLRKFTEHLGWEIEHVHDHRIEVYDGVDHVDTKIRGRIDGRRTETRARIILFIYDGRIKSIHEETK reaches 0.6 or more?
A. Fulfilled

Q. Could you tell me if the measured protease stability score of DELTESVREFIEHFIRALETGDWHILHRLLDPHVKLNVNGVEFHGREIIVEFLREIRIHSFIVHHVRIQGDWIDIDGETDGVINGRRIRTRTRIHLHKIDGRWQIKSESVI reaches 0.6 or more?
A. Fulfilled

----------
# assay: protease stability score; higher = more stable; yeast display proteolysis, trypsin and chymotrypsin;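 note: relative to predicted unfolded state with 0 unfolded-like and 1 meaning tenfold more protease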
Some sequences, each annotated with its measured protease stability score.
// return a plain number; no unit text

residue sequence	protease stability score
NKMDEYAYKMLELWLEAFLTGDFEFIEKNLDPHVRSRINGVELIGRHLYLEMVRREMEEIRVKDVHPRRVEIIDGVVHFHGEWNGQVNGRETHKEHEVEIIVVNGRLKSVIFRIR	1.27
SEDEEEFRRWLEEMVRALITGDEDRLKELFDPHAQVHVNGKERHGRDELVKAFRETLEDFGVKHMRVTSSSVQGDYVIIHIEMHVDGKPIQTDIRVIIVNGKVHKFEVQLH	1.89
LEEKDEVHHIVDRLFKVLMTGDFEILRHLLDPDDRLKIDINGRQIDLHGREEVVHWVIHELRELRIELRVKRVHHTENHYVADTRLHIRQGDKEFVHETEWRILIIDGKNKEWRIIVH	1.38

Q. Request the reported protease stability score associated with DERDEAEKVLMKILLDNHHTGDEESLERLIDPNAKIIYGDKDYVGWELMIEWVRHARVHRVEIKDSRVQGDKVNLDGHEDGNINGKRRRTNVIVYLLKINGRWFFHSIQID
A. 2.17

Q. Request the reported protease stability score associated with SEDEEELERELRLWLSLVLTGDEDIIRELADPHARSRVNGQKSHGRENLLQLFREHMEIMGAKVVDIEEYHIQGEKIILIMRVHVGDKEYELRIEIHVFNGRLKEVNLHFK
A. 1.52

Q. Request the reported protease stability score associated with DDSRRVAEEVSELIKILYDTGDWRHLHELLDPHVRIEIGDKEFHGRDTWLREMIRADHVEYHTHDYRSQGNKIFIRGHLIVHINGRTHKEDVRLHVHKVDGQWIIDSIEMK
A. 1.01

Q. Request the reported protease stability score associated with DDTDRRSRILTELSLNLFRTGDWKLFEEMADPHARMSMDVDGKELRHHGRESVSHVWHRQLFELGVDHYDLHDVKVIDGVMHVFSEVKVGDKRLELLIVAEKVNGKWHIREVHIKII
A. 0.202

Q. Request the reported protease stability score associated with DEIEEKIETHIKILLHASRTGDWELNSHNADPHTRIDIDGVELHGMEHFFTIMKEMRMKEYTLHHIEVQGEKIRIRGELRGEWDGKEEVVDVILIIVKIDGKWLIKEVRFR
A. 1.07

Q. Request the reported protease stability score associated with HSLEKDAHEAFELFADTVRTGDEKLMQHLIDPNVRFDYNGVDLHGWKDVSRLMIELRIEDVRLTHVHVIGNKVHLDTRIHSHVNGRRIDTEMHVDIEKVNGRWVIRRIEHR
A. 1.47

Q. Request the reported protease stability score associated with DENHEVAEYILKILVESLETGNEELFKRLIDPNVRIEINGVEVHGWQFWIDHIDELRIRRVEAILRDAREYNGRIDMDTELKMDGEIDGVRTETSRRVRMVLEKVNGRWYVREIRIE
A. 2.39

Q. Request the reported protease stability score associated with TEEEEEARRALEEWIHNLMTGDEKRELELADPHVRILIDINGREIHMHGWEQFERWVHEEMRRLGLDRFEVRLEHIEIQGDKSVLDGRINYNGVDERNNIILVVVDGKLRQIRIHVI
A. 1.95

----------
# assay: protease stability score; higher = more stable; yeast display proteolysis, trypsin and chymotrypsin;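 note: relative to predicted unfolded state with 0 unfolded-like and 1 meaning tenfold more protease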
Record Y whenever protease stability score is at 1 or higher; record N when lower.

residue sequence	class name
SEDRQIAEQIVEDLSTSTVTGDWRLILELLDPDTRIVVDGVDLHGREEFLRFFERIDHMRARRTRLSDFRSYGDKVEADVDIKMEYIVDGRNITERFKERFIIIKVNGRWIVKEWRLK	Y
SEDEESMRRAMEIWEKTMETGDERIYEELVDPDVKIEINGKNFIGREDAVKVFHKLGIKVSEIREVRIIGDKMILKGEDNINGRNVDSRLITRKINGKWIIESFSIV	Y
TEDKEKDDEVAHLFLNAVRTGDEELFQDLVDPETRLNVNGQEIHGRENVFRHMRETWDKMGVDHVELKDRRHINGVLILHFEIRVGDKTIHVEYIIEKIDGRWILTKVHIR	N
DEIEERTKELMKIDLELLETGDEETLLHLLDPHVKIITWINGRRVQRVGRHIWVHWLRYLGIDHLHVDDVEVQGDKITFDMTIEINGRTHKAVLRSQVVDGKITSLEIEVR	Y
DHTEHDARLVMEIWLRILLTGDWETLEKMLDPHVRLQINIGDKRHTHHGREDFLKRLYDLIRELGVDHWTLDEKRVQGNKTRARVTMYVGDKSYDVEIILVAVNGRIREVTIEIH	Y

Turning to the following sequence.
Q. Could you tell me if the measured protease stability score of SELHEEVRHIAEQWVKSWITGDEHLLQKLADPHVRFKIGDKSNHGRENVIKEIRRLEEEHGAEERIIITHVRVVGDKYELHGTYELRIGDKHETRHLHIEIWVVNGVVKEIDIQID reaches 1 or more?
A. Y
